Source of measurements: patent US20240139185A1

# System: pERK in H358 cells
# TEST_DESCRIPTION: pERK inhibition in H358 cells
# Type: cell-based, human
# CONDITION_SET: 4 hours treatment, read-out: Cellular pERK inhibition
We begin with a simple list: items and their reported IC50.

MOLECULE: CC(C)[C@@H](C(=O)N[C@H]1Cc2cc(O)cc(c2)-c2cc3c(ccc(C#N)c3s2)OCCCOC(=O)[C@@H]2CCCN(N2)C1=O)N(C)C(=O)C1CN(C(=O)CCl)C1 [Compound 172]
IC50: > 10 µM
//
MOLECULE: C=CC(=O)N1CCC(C(=O)N(C)C(C(=O)NC2Cc3cc(O)cc(c3)-c3ccc4c(c3)c(cn4C(C)(C)C#N)CC(C)(C)COC(=O)C3CCCN(N3)C2=O)C2CCCCC2)C1 (stereo not shown) [Compound 396]
IC50: 1 to 10 µM
//
MOLECULE: CC(C)[C@@H](C(=O)N[C@H]1Cc2cc(O)cc(c2)-c2ccc3c(C#N)cn(c3n2)CC(C)(C)COC(=O)[C@@H]2CCCN(N2)C1=O)N(C)C(=O)C1CN(C(=O)CCl)C1 [Compound 176]
IC50: 1 to 10 µM
//
MOLECULE: C=CC(=O)N1CCC(C(=O)N(C)C(C(=O)NC2Cc3cc(O)cc(c3)-c3ccc4c(c3)c(c(C#N)n4CC)CC(C)(C)COC(=O)C3CCCN(N3)C2=O)C2CCCC2)C1 (stereo not shown) [Compound 397]
IC50: ≤ 1 µM
//
MOLECULE: CNC(=O)c1cc2ccc3cc2n1CC(C)COC(=O)C1CCCN(N1)C(=O)C(NC(=O)C(C(C)C)N(C)C(=O)C1CN(C(=O)CCl)C1)Cc1cc(O)cc-3c1 (stereo not shown) [Compound 115]
IC50: > 10 µM
//
MOLECULE: C=CC(=O)N1CCCC1C(=O)N(C)C(C(=O)NC1Cc2cc(O)cc(c2)-c2ccc3c(C(F)F)nn(c3c2)CC(C)COC(=O)C2CCCN(N2)C1=O)C(C)C (stereo not shown) [Compound 205]
IC50: > 10 µM
//
MOLECULE: CC1COC(=O)C2CCCN(N2)C(=O)C(NC(=O)C(C(C)C)N(C)C(=O)C2CN(C(=O)CCl)C2)Cc2cc(O)cc(c2)-c2ccc3c(S(C)(=O)=O)cn(c3c2)C1 (single isomer, unassigned) [Compound 110]
IC50: 1 to 10 µM
//
MOLECULE: CC(C)C(C(=O)NC1Cc2cc(O)cc(c2)-c2ccc3c(C(C)(C)C#N)cn(c3c2)CC(C)(C)COC(=O)C2CCCN(N2)C1=O)N(C)C(=O)C1CCN(C(=O)CCl)C1 (stereo not shown) [Compound 33]
IC50: ≤ 1 µM
//
MOLECULE: CC[C@@H](C(=O)N[C@H]1Cc2cc(O)cc(c2)-c2ccc3c(C(C)(C)C#N)cn(c3c2)CC(C)(C)COC(=O)[C@@H]2CCCN(N2)C1=O)N(C)C(=O)C1CN(C(=O)CCl)C1 [Compound 56]
IC50: > 10 µM
//
MOLECULE: Cc1c(C#N)c2ccc3cc2n1CC(C)(C)COC(=O)[C@@H]1CCCN(N1)C(=O)[C@@H](NC(=O)[C@H](C(C)C)N(C)C(=O)C1CN(C(=O)CCl)C1)Cc1cc(O)cc-3c1 [Compound 106]
IC50: 1 to 10 µM
//
MOLECULE: CC(C)[C@@H](C(=O)N[C@H]1Cc2cc(O)cc(c2)-c2ccc3c(CCC#N)cn(c3c2)CC(C)(C)COC(=O)[C@@H]2CCCN(N2)C1=O)N(C)C(=O)C1CN(C(=O)CCl)C1 [Compound 256]
IC50: ≤ 1 µM
//
MOLECULE: CC(C)[C@@H](C(=O)N[C@H]1Cc2cc(O)cc(c2)-c2ccc3c(C(F)F)nn(c3c2)C[C@H](C)COC(=O)[C@@H]2CCCN(N2)C1=O)N(C)C(=O)C1CN(C(=O)CCl)C1 [Compound 202]
IC50: 1 to 10 µM
//
MOLECULE: CC(C)[C@@H](C(=O)N[C@H]1Cc2cc(O)cc(c2)-c2ccc3c(c2)n(c(=O)n3C)CC(C)(C)COC(=O)[C@@H]2CCCN(N2)C1=O)N(C)C(=O)C1CN(C(=O)CCl)C1 [Compound 189]
IC50: ≤ 1 µM
//
MOLECULE: COCc1nc2ccc3cc2n1CC(C)(C)COC(=O)[C@@H]1CCCN(N1)C(=O)[C@@H](NC(=O)[C@H](C(C)C)N(C)C(=O)C1CN(C(=O)CCl)C1)Cc1cc(O)cc-3c1 [Compound 143]
IC50: > 10 µM
//
MOLECULE: C=CC(=O)N1CC2(CCN(C(C(=O)NC3Cc4cc(O)cc(c4)-c4ccc5c(C(C)(C)C#N)cn(c5c4)CC(C)(C)COC(=O)C4CCCN(N4)C3=O)C(C)C)C2=O)C1 (stereo not shown) [Compound 42]
IC50: 1 to 10 µM
//
MOLECULE: CC1COC(=O)[C@@H]2CCCN(N2)C(=O)[C@@H](NC(=O)[C@H](C(C)C)N(C)C(=O)C2CN(C(=O)CCl)C2)Cc2cc(O)cc(c2)-c2ccc3c(c2)N(CCO3)C1 (single isomer, unassigned) [Compound 184]
IC50: > 10 µM
//
MOLECULE: C=CC(=O)N1CCN([C@H](C(=O)N[C@H]2Cc3cc(O)cc(c3)-c3ccc4c(C5CCOCC5)cn(c4c3)CCCOC(=O)[C@@H]3CCCN(N3)C2=O)C(C)C)C1=O [Compound 229]
IC50: > 10 µM
//
MOLECULE: CN(C(=O)C1CN(C(=O)CCl)C1)[C@@H](CC1CC1)C(=O)N[C@H]1Cc2cc(O)cc(c2)-c2ccc3c(C(C)(C)C#N)cn(c3c2)CC(C)(C)COC(=O)[C@@H]2CCCN(N2)C1=O [Compound 57]
IC50: 1 to 10 µM
//
MOLECULE: CC(C)[C@@H](C(=O)N[C@H]1Cc2cc(O)cc(c2)-c2ccc3c(-c4ccccc4Cl)cn(c3c2)CC(C)(C)COC(=O)[C@@H]2CCCN(N2)C1=O)N(C)C(=O)C1CN(C(=O)CCl)C1 [Compound 241]
IC50: 1 to 10 µM

====

# EXPERIMENTAL_SYSTEM: BRAF-GTP-KRAS-G12C complex (Homo sapiens, UniProt P01116+P62937, G12C)
# Construct: 50 nM of His6-KRas G12C-GTP (1-169); 500 nM of tagless CypA (1-165)
# TEST_DESCRIPTION: KRAS-BRAF complex disruption through competition with CYPA-compound by TR-FRET
# CONDITION_SET: biochemical BRAF-KRAS G12C-GTP disruption assay EC50, with CYPA
pEC50: −log10 of the molar value.
We begin with a simple list: items and their reported pEC50.

COMPOUND: C=CC(=O)N1CCC(C(=O)N(C)C(C(=O)NC2Cc3cc(O)cc(c3)-c3ccc4cc(-c5ccccc5COC)n(c4c3)CC(C)(C)COC(=O)C3CCCN(N3)C2=O)C(C)C)C1 (stereo not shown)
pEC50: 5.30 to 6.30
//
COMPOUND: C=CC(=O)N1CCN([C@H](C(=O)N[C@H]2Cc3cc(O)cc(c3)-c3ccc4c(Cl)nn(c4c3)CC(C)(C)COC(=O)[C@@H]3CCCN(N3)C2=O)C(C)C)C1=O
pEC50: ≥ 6.30
//
COMPOUND: CC(C)[C@@H](C(=O)N[C@H]1Cc2cc(O)cc(c2)-c2ccc3c(C4CCC4)cn(c3c2)C[C@H](C)COC(=O)[C@@H]2CCCN(N2)C1=O)N(C)C(=O)C1CN(C(=O)CCl)C1
pEC50: ≥ 6.30
//
COMPOUND: C=CC(=O)N1CCN([C@H](C(=O)N[C@H]2Cc3cc(O)cc(c3)-c3ccc4cnn(c4c3)CC(C)(C)COC(=O)[C@@H]3CCCN(N3)C2=O)C(C)C)C1=O
pEC50: 5.30 to 6.30
//
COMPOUND: C=CC(=O)N1CCN([C@H](C(=O)N[C@H]2Cc3cc(O)cc(c3)-c3ccc4c(=O)n(C)n(c4c3)CCCOC(=O)[C@@H]3CCCN(N3)C2=O)C(C)C)C1=O
pEC50: < 5.30
//
COMPOUND: COc1ccccc1-c1nc2ccc3cc2n1CCCOC(=O)[C@@H]1CCCN(N1)C(=O)[C@@H](NC(=O)[C@H](C(C)C)N(C)C(=O)C1CN(C(=O)CCl)C1)Cc1cc(O)cc-3c1
pEC50: ≥ 6.30
//
COMPOUND: CC(C)[C@@H](C(=O)N[C@H]1Cc2cc(O)cc(c2)-c2ccc3c(Cc4ccccn4)cn(c3c2)C[C@H](C)COC(=O)[C@@H]2CCCN(N2)C1=O)N(C)C(=O)C1CN(C(=O)CCl)C1
pEC50: ≥ 6.30
//
COMPOUND: CC(C)C(C(=O)NC1Cc2cc(O)cc(c2)-c2ccc3c(C(C)(C)C#N)cn(c3c2)CC(C(F)F)COC(=O)C2CCCN(N2)C1=O)N(C)C(=O)C1CN(C(=O)CCl)C1 (single isomer, unassigned)
pEC50: ≥ 6.30
//
COMPOUND: CC(C)[C@@H](C(=O)N[C@H]1Cc2cc(O)cc(c2)-c2ccc3c(C(C)(C)C#N)cn(c3c2)CC(CO)COC(=O)[C@@H]2CCCN(N2)C1=O)N(C)C(=O)C1CN(C(=O)CCl)C1 (single isomer, unassigned) [Compound 22]
pEC50: ≥ 6.30
//
COMPOUND: CC(C)[C@@H](C(=O)N[C@H]1Cc2cc(O)cc(c2)-c2ccc3c(C(C)(C)C#N)cn(c3c2)C[C@H](C)COC(=O)[C@@H]2CCCN(N2)C1=O)N1CC[C@@H](NC(=O)CCl)C1=O
pEC50: 5.30 to 6.30
